Numbers sourced from patent US11065314B2.

Molecular target: HLA-A*02:01 (Homo sapiens, UniProt P04439, D140Y/D185E/D98H/E176V/E277Q/G131W/G231S/I119V/I121R/I166T/I218V/L300P/L318F/N151K/N90K/P208A/P217A/Q86G/Q94H/R138H/R169H/T345S)
Experiment: MHC binding assay: UV-ligand exchange with β2m ELISA
Conditions: binding to HLA-A*02:01, UV-ligand exchange
Square brackets hold non-standard residues; d marks the D form. Ends that are not written are not given here. pT = C[C@@H](OP(=O)(O)O)[C@H](N)C(=O)O
quantity: Peptide Exchange (peptide exchange yield)

// below: answered sequences
>  <residue_codes>
SLNDQGYLL (listed as Homo sapiens) [SEQ ID NO: 41, HLA-A*02 peptide, source gene MCM8]

>  <result>
“+++” (≥50 = +++)

$$$$
>  <residue_codes>
FSFPVSVGV (listed as Homo sapiens) [SEQ ID NO: 20, HLA-A*02 peptide, source gene DUSP4]

>  <result>
“+++” (≥50 = +++)

$$$$
>  <residue_codes>
GLVATLQSL (listed as Homo sapiens) [SEQ ID NO: 32, HLA-A*02 peptide, source gene IFI6]

>  <result>
“+++” (≥50 = +++)

$$$$
>  <residue_codes>
FLSSEAANV (listed as Homo sapiens) [SEQ ID NO: 30, HLA-A*02 peptide, source gene TNFAIP2]

>  <result>
“++” (≥20% = ++)

$$$$
>  <residue_codes>
ALEAUQLYL (ALEA[pT]QLYL; listed as Homo sapiens) [SEQ ID NO: 29, HLA-A*02 peptide, source gene DEPDC4; U = phospho-threonine]

>  <result>
“+++” (≥50 = +++)

$$$$

Request: Quick check: Peptide Exchange (peptide exchange yield) of TLLGLAVNV (listed as Homo sapiens) [SEQ ID NO: 36, HLA-A*02 peptide, source gene CHPT1] ?
Result: “++++” (≥75% = ++++)

Request: Thanks! And KMPEHISTV (listed as Homo sapiens) [SEQ ID NO: 1, HLA-A*02 peptide, source gene CILP] ?
Result: “+++” (≥50 = +++)

Request: What do we get for KQLELELEV (listed as Homo sapiens) [SEQ ID NO: 14, HLA-A*02 peptide, source gene MUC6] ?
Result: “+++” (≥50 = +++)

====

Molecular target: HLA-A*02:01 (Homo sapiens, UniProt P04439, D140Y/D185E/D98H/E176V/E277Q/G131W/G231S/I119V/I121R/I166T/I218V/L300P/L318F/N151K/N90K/P208A/P217A/Q86G/Q94H/R138H/R169H/T345S)
Test: MHC binding assay: UV-ligand exchange with β2m ELISA
Settings: binding to HLA-A*02:01, UV-ligand exchange
quantity: Peptide Exchange (peptide exchange yield)

Answered cases to consult:
>  <residue_codes>
GLVQSLTSI (listed as Homo sapiens) [SEQ ID NO: 8, HLA-A*02 peptide, source gene ABCC11]

>  <result>
“++++” (≥75% = ++++)

$$$$
>  <residue_codes>
GLHSLPPEV (listed as Homo sapiens) [SEQ ID NO: 10, HLA-A*02 peptide, source gene LRRC8E]

>  <result>
“+++” (≥50 = +++)

$$$$
>  <residue_codes>
GLSYIYNTV (listed as Homo sapiens) [SEQ ID NO: 31, HLA-A*02 peptide, source gene COG6]

>  <result>
“++” (≥20% = ++)

$$$$
>  <residue_codes>
YIDGLESRV (listed as Homo sapiens) [SEQ ID NO: 22, HLA-A*02 peptide, source gene CREB3L4]

>  <result>
“+++” (≥50 = +++)

$$$$

Request: Which Peptide Exchange (peptide exchange yield) value belongs to SLADAVEKV (listed as Homo sapiens) [SEQ ID NO: 23, HLA-A*02 peptide, source gene CCDC122] ?
Result: “+++” (≥50 = +++)

Request: Similarly, SLLSEIQAL (listed as Homo sapiens) [SEQ ID NO: 35, HLA-A*02 peptide, source genes AKAP9, PCNT] ?
Result: “++++” (≥75% = ++++)

Request: Next sequence up: ALNPVIYTV (listed as Homo sapiens) [SEQ ID NO: 5, HLA-A*02 peptide, source gene DRD4]
Result: “++” (≥20% = ++)

Request: Also SMMGLLTNL (listed as Homo sapiens) [SEQ ID NO: 16, HLA-A*02 peptide, source gene ESR1] ?
Result: “++++” (≥75% = ++++)

Request: Same again, this time with TIASSIEKA (listed as Homo sapiens) [SEQ ID NO: 17, HLA-A*02 peptide, source gene STPG2]
Result: “++” (≥20% = ++)
